B1: Azoarcus group I ribozyme (parent)
chain: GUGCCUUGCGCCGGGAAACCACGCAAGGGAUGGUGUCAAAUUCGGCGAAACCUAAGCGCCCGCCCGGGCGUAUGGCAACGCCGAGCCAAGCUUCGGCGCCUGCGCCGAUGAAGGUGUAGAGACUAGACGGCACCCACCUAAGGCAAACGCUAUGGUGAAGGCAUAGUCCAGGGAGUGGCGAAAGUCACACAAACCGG

- Variants of: B1
- procedure_text: reverse-splicing fitness (ratio to wild type); higher = more active; in vitro selection; Mg2+ level not given
Assignment: determine reported reverse-splicing fitness for the given variants.

I'd like to know its reverse-splicing fitness. The variant in question is A111U A145C C150A C169G
0.00935

I'd like to know its reverse-splicing fitness. The variant in question is C82G C150G C169A U176G
0.00752

I'd like to know its reverse-splicing fitness. The variant in question is C82A A111C A120U A145U
0.0205

I'd like to know its reverse-splicing fitness. The variant in question is C82A A111U A120G A145G C169G U176A
0.021

I'd like to know its reverse-splicing fitness. The variant in question is C82A A120G A145U C169A U176C
0.00947

I'd like to know its reverse-splicing fitness. The variant in question is C82A A111U A120G A145C C150U C169A U176G
0.00508

I'd like to know its reverse-splicing fitness. The variant in question is C82A A111C A120C A145C C150U U176G
0.00571

I'd like to know its reverse-splicing fitness. The variant in question is C82G A111C A120U C150G C169A U176G
0.00331

I'd like to know its reverse-splicing fitness. The variant in question is C82A A111G A120G C150A C169U
0.00823

I'd like to know its reverse-splicing fitness. The variant in question is C82G A111U A145C C150A C169G U176A
0.0227

I'd like to know its reverse-splicing fitness. The variant in question is A111U A120U A145G U176A
0.27

I'd like to know its reverse-splicing fitness. The variant in question is A111G A145U C169A
0.0537

I'd like to know its reverse-splicing fitness. The variant in question is A111U C150G
0.308

I'd like to know its reverse-splicing fitness. The variant in question is C82U A111G A120C A145C C150U C169G U176C
0.00801

I'd like to know its reverse-splicing fitness. The variant in question is C82G A120U A145U C169A
0.00221

I'd like to know its reverse-splicing fitness. The variant in question is C82U A111U A120G A145C C150U C169U U176G
0.00401

I'd like to know its reverse-splicing fitness. The variant in question is C82A A111U A120C A145C C169A
0.0103

I'd like to know its reverse-splicing fitness. The variant in question is C82G A111G A145G C150G U176C
0.026

I'd like to know its reverse-splicing fitness. The variant in question is C82A A111G A120C A145G C150U U176C
0.0258

I'd like to know its reverse-splicing fitness. The variant in question is C82G A111C A120C A145U C150A C169A U176G
0.00868

I'd like to know its reverse-splicing fitness. The variant in question is C82U A111U A120G C150A C169G
0.0098

I'd like to know its reverse-splicing fitness. The variant in question is C82G A111U A145U C150U C169U
0.0113

I'd like to know its reverse-splicing fitness. The variant in question is C82A A145C C150A U176A
0.0316

I'd like to know its reverse-splicing fitness. The variant in question is A111G A120C A145C C169G U176G
0.00352

I'd like to know its reverse-splicing fitness. The variant in question is C82G A111U A145G C150A C169U U176G
0.00791

I'd like to know its reverse-splicing fitness. The variant in question is C82G A111U A145C C150A C169A U176C
0.00716

I'd like to know its reverse-splicing fitness. The variant in question is C82A A120U A145G C150G C169G U176A
0.00824

I'd like to know its reverse-splicing fitness. The variant in question is C82A A111U A120C A145C C150A C169A U176A
0.0206

I'd like to know its reverse-splicing fitness. The variant in question is A111C A145C C150A
0.15

I'd like to know its reverse-splicing fitness. The variant in question is A111U A120G A145G C150U C169G U176C
0.0424

I'd like to know its reverse-splicing fitness. The variant in question is C82G A120U C150A U176G
0.00569

I'd like to know its reverse-splicing fitness. The variant in question is C82G A111U A120U C150A C169G U176A
0.00827

I'd like to know its reverse-splicing fitness. The variant in question is C82U A111U A120C A145C C150A C169G U176A
0.0195

I'd like to know its reverse-splicing fitness. The variant in question is C82U A111C A120C A145U C169A U176A
0.0107

I'd like to know its reverse-splicing fitness. The variant in question is C82G A111U A120U A145C C169U U176C
0.00238

I'd like to know its reverse-splicing fitness. The variant in question is C82G A111U A120U A145U C150A C169A U176G
0.00209

I'd like to know its reverse-splicing fitness. The variant in question is A111U A120G A145U C169G U176C
0.045

I'd like to know its reverse-splicing fitness. The variant in question is A120G A145G C169G U176A
0.221

I'd like to know its reverse-splicing fitness. The variant in question is C82U A111G A120C C150U C169G U176C
0.0156

I'd like to know its reverse-splicing fitness. The variant in question is A111G A145G C169U
0.19

I'd like to know its reverse-splicing fitness. The variant in question is C82G A111C A120C A145G C150U C169G
0.00759

I'd like to know its reverse-splicing fitness. The variant in question is C82A A111G A120G C150A C169G U176A
0.0211
